Target: MMP-13 (Homo sapiens)
Assay: MMP-13 inhibition (thiopeptide or fluorescent peptide substrate assay)
Type: biochemical
Conditions: read-out: MMP-13 IC50
Outcome Measure: pIC50
Formally, pIC50 is defined as -log10 of the concentration c, with c in mol/L.

# Molecule, pIC50
data = [
    ("CCN(C(=O)C=Cc1cc(C)c(N(Cc2cccnc2)S(=O)(=O)c2ccc(OC)cc2)c(C(=O)NO)c1)c1ccccc1", 8.72),
    ("COc1ccc(S(=O)(=O)N(Cc2cccnc2)c2c(C)cc(-c3cccs3)cc2C(=O)NO)cc1", 8.40),
]

Continue with the molecule presented below.
For the molecule "COc1ccc(S(=O)(=O)N(Cc2ccc(Br)cc2)c2c(C)cc(C)cc2C(=O)NO)cc1" , what pIC50 is on record?
7.41

----------
Molecular target: MMP-9 (Homo sapiens, UniProt P14780)
Sequence (P14780 94-707): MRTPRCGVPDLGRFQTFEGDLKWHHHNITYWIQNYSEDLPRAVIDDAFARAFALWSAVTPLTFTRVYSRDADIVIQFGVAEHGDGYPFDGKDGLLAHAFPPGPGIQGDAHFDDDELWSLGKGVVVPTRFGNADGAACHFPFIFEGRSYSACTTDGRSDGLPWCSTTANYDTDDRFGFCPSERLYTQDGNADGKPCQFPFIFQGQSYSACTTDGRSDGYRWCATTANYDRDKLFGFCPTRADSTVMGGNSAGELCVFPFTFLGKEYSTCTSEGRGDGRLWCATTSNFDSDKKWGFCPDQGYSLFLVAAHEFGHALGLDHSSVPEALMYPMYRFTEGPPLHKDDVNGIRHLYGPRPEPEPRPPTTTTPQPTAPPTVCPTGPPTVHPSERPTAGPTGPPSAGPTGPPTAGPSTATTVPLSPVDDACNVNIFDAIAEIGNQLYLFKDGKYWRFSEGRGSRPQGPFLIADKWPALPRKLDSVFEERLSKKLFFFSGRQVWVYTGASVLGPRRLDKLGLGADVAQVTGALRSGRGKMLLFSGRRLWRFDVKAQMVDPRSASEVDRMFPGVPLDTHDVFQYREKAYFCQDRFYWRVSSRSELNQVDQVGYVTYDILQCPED
Test: MMP-9 inhibition (thiopeptide or fluorescent peptide substrate assay)
Assay type: biochemical
Counter-ions that a name gives are not always drawn.
Outcome Measure: pIC50
Formally, pIC50 is defined as -log10 of the concentration c, with c in mol/L.

# Compound, pIC50
data = [
    ("COc1ccc(S(=O)(=O)N(C)c2c(C)cc(C=CC(=O)N(C)C)cc2C(=O)O)cc1", 8.19),
    ("COc1ccc(S(=O)(=O)N(Cc2ccccc2)c2c(OC)cccc2C(=O)NO)cc1", 7.64),
    ("COc1ccc(S(=O)(=O)N(Cc2ccccc2)c2ccccc2C(=O)NO)cc1", 6.19),
]

Continue with the compound presented below.
For the compound COc1ccc(S(=O)(=O)N(Cc2cccnc2)c2c(C)cc(-c3ccccc3)cc2C(=O)NO)cc1 [Example 397, hydrochloride salt] , what pIC50 is on record?
8.52

----------
Target: MMP-9 (Homo sapiens, UniProt P14780)
Assay: MMP-9 inhibition (thiopeptide or fluorescent peptide substrate assay)
Format: biochemical
Details: read-out: MMP-9 % inhibition; footnote: 1µM
Outcome Measure: inhibition at 1 µM
Include the unit after the number when you answer.

These recorded examples may help you get a feel for the data.
# Molecule, Measured Target, inhibition at 1 µM
measured = [
    ("CCOC(=O)CCCN(c1c(C)cccc1C(=O)NO)S(=O)(=O)c1ccc(OC)cc1 [Example 383]", "MMP-9 (Homo sapiens, UniProt P14780)", "87%"),
    ("Cc1cccc(C(=O)NO)c1N(Cc1cccnc1)S(=O)(=O)c1ccc(-c2ccc3c(c2)OCO3)cc1 [Example 415]", "MMP-9 (Homo sapiens, UniProt P14780)", "43%"),
    ("COc1ccc(S(=O)(=O)N(CC(=O)OCc2ccccc2)c2c(C)cccc2C(=O)NO)cc1 [Example 385]", "MMP-9 (Homo sapiens, UniProt P14780)", "65%"),
    ("Cc1cc(Br)cc(C(=O)NO)c1N(Cc1ccccc1)S(=O)(=O)c1ccc(OCc2ccccc2)cc1 [Example 308]", "MMP-9 (Homo sapiens, UniProt P14780)", "45%"),
]

Continue with the molecule presented below.
For the molecule COc1ccc(S(=O)(=O)N(CCO)c2c(C)cccc2C(=O)NO)cc1 [Example 388] , what inhibition at 1 µM is on record?
47%

----------
Readings of IC50 for the listed compounds
Biological target: TACE (Homo sapiens)
Sequence (P78536 215-824): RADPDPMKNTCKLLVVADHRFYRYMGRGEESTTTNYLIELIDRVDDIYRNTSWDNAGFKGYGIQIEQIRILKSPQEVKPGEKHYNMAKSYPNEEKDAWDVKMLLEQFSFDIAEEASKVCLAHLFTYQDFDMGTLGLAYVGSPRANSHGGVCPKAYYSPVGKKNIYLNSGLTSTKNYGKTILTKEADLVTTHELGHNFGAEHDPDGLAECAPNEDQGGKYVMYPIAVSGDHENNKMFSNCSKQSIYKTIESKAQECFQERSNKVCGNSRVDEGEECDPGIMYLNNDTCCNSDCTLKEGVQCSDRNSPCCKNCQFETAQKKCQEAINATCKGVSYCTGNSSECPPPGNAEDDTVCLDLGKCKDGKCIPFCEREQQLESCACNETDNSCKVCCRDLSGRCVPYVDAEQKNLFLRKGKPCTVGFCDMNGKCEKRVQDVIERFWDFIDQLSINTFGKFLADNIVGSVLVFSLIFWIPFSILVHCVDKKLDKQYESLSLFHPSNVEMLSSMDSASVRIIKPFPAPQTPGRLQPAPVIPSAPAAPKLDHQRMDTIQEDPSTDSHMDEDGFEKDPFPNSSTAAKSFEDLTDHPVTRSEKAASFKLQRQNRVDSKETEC
Test: TACE inhibition (fluorescent peptidyl substrate)
Type: biochemical
Structures can show the parent of a compound that is named as a salt.
Please give a number only; it is taken to be in nM.

These recorded examples may help you get a feel for the data.
# Compound, Measured Target, Readout Unit, IC50
measured = [
    ("COc1ccc(S(=O)(=O)N(Cc2cccnc2)c2c(C(=O)NO)cc(C)cc2-c2ccco2)cc1", "TACE (Homo sapiens)", "nM", 61),
    ("COc1ccc(S(=O)(=O)N(Cc2cccnc2)c2c(C)cc(-c3ccccc3)cc2C(=O)NO)cc1 [Example 397, hydrochloride salt]", "TACE (Homo sapiens)", "nM", 64),
    ("COc1ccc(S(=O)(=O)N(C)c2c(Cn3ccnc3)cccc2C(=O)NO)cc1", "TACE (Homo sapiens)", "nM", 157),
    ("Cc1cc(C)c(N(Cc2ccccc2)S(=O)(=O)c2ccc(OCc3ccccc3)cc2)c(C(=O)NO)c1", "TACE (Homo sapiens)", "nM", 429),
    ("COC(=O)c1cccc(C(=O)NO)c1N(Cc1cccnc1)S(=O)(=O)c1ccc(OC)cc1", "TACE (Homo sapiens)", "nM", 38),
]

Continue with the compound presented below.
For the compound "COc1ccc(S(=O)(=O)N(C)c2c(CN3CCN(C)CC3)cc(Br)cc2C(=O)NO)cc1" , what IC50 is on record?
26
